Reported self-cleavage values for a set of variants
B1: CPEB3 Ribozyme (parent)
chain: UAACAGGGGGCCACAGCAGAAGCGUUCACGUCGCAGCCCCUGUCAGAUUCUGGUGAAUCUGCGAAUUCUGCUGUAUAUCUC

Variants of: B1
Test: self-cleavage, relative activity (ratio to wild type); higher = more cleavage; in vitro, sequencing
Recorded Endpoint: self-cleavage

UAACAGGGGGCCACAGCAGGAGCGUUCACGUCGCAGCCCCUGUCAGAUUCUGGUGAAUCUGCGAAUCCUGCUGUAUAUCUC; 1.01
UAACAGGGGGCCACCGCAGAAGCGUUCACGUCGCAGCCCCUGUCAGAUUCUGGUGAAUCUGCAAAUUCUGCUGUAUAUCUC; 0.99
UAACAGGGGGCCACAGCAGAAGCGUUCACGUCGCAGCCCCUGUCAGAUUCUGGUGAAUCUGCGAAUUAUGCUGUUUAUCUC; 0.28
UAACAGGGGGCCACAGCAGAAGCGUUCACGACGCAGCCCCUGUCAGAUUCUGGUGAAUCUGUGAAUUCUGCUGUAUAUCUC; 0.26
UAACAGGGGGCCACAGCAGAAGCGUUCACGUCGCAGCCCCUGUGAGAUUCUGGUGGAUCUGCGAAUUCUGCUGUAUAUCUC; 0.44
UAACAGGGGGCCACAGCAGAAGCGUUCACGUCGCAGCCCCUGUCAGAUUUUAGUGAAUCUGCGAAUUCUGCUGUAUAUCUC; 0.99
UAACUGGGGGCCACAGCAGAAGCGUUCACAUCGCAGCCCCUGUCAGAUUCUGGUGAAUCUGCGAAUUCUGCUGUAUAUCUC; 0.27
UAACAGGGGGCCACAGCAGAAGCGUUCACGUCGCAGCCCCUGUCAGAUUCUGGUGAAGCAGCGAAUUCUGCUGUAUAUCUC; 0.18
UAACAGGGUGCCACAGCAGAAGCGUUCACGUCGCAGCCCUUGUCAGAUUCUGGUGAAUCUGCGAAUUCUGCUGUAUAUCUC; 0.19
UAACAGGGGGCCACAGCAGAAGCGUUCACGUCGCAGCCCCUGUUAGAUUCUGGUGAAUCUGCGAGUUCUGCUGUAUAUCUC; 0.13
UAACAGGGGGCCACAGCAGAAGCGUUCACGUCGCAGCCCCUGUCAGAUUCUGGUGAACCUGCGAAUUCUGCUGUAUAGCUC; 0.44
UAACAGGGGGCCACAGCAGAAGCGUUCACGUCGCAGCCCCUGUCAGAUUCUGGUGAAUCUGUGAAUUCUGCUGUGUAUCUC; 0.22
UAACAGGGGGACACAGCGGAAGCGUUCACGUCGCAGCCCCUGUCAGAUUCUGGUGAAUCUGCGAAUUCUGCUGUAUAUCUC; 0.28
UAACAGGGGGCCACAGCAGAAGCGUUCACGUCACAGCCCCUGUCAGAUUGUGGUGAAUCUGCGAAUUCUGCUGUAUAUCUC; 0.22
UAACAGGGGGCCACAGCAGUAGCGUUCACGUCGCAGCCCCUGUCAGAUUCUGGUGAAUCUGCGAAUUCUGAUGUAUAUCUC; 0.17
UAACAGGGGGCCACAGCAGAAGCGUUCACGUCGCGGCCCCUGUCAGAUUCUGGUGAAUCUGCGAAUCCUGCUGUAUAUCUC; 0.56
UAACAGGGGGCCACAGCAGGAGCGUUCACGUCGCAGCCCCUGUCUGAUUCUGGUGAAUCUGCGAAUUCUGCUGUAUAUCUC; 0.3
UAACAGGGGGCCACAGCAGAAGCGUUCACGUCGCAGCCCCUGUCAGAUUCUGGUGAUUUUGCGAAUUCUGCUGUAUAUCUC; 0.21
UAACAGGGGGCCACAGCAGAAGCGUCCACGUCGCAGCCCCUGUCAGAUUCUGGUGAAUCUGCGAAUUCUGCCGUAUAUCUC; 0.65
UAACAGGGGGCCACAGCAGAAGCGUUCACGUCACAGCCCCUGUCAGAUCCUGGUGAAUCUGCGAAUUCUGCUGUAUAUCUC; 0.28
UAACAGGGGGCCACAGCAGAAGCGUUCACGUCGCAGCCCCUGUCAGAUUCUGGUGAAUCUGCGGAUUCUGCUGUAUAACUC; 1.07
UAACAGGGGGCCACUGCAGAAGCGUUCACGUCGCAGCCCCUGUCAGUUUCUGGUGAAUCUGCGAAUUCUGCUGUAUAUCUC; 0.34
UAACAGGGGGCCACAGCAGAAGCGUUCACGUCGCAGCCCCUGUCAGAUUCUGGUGAACCUGCGAAUUCUGCUGUAUAUCUA; 0.75
UAACAGGGGGCCACAGCAGAAGCGUUCACGUCGCAGCCCCUGUCAGAUACUGGUGAAUCUGCGAAUUCUGCUGUAUACCUC; 0.57
UAACAGGGGGCCACAGCAGAAGCGUUCACGUCGCAGCCCCUGUCAGAUUCUGGUGGAUCUGCGAAUCCUGCUGUAUAUCUC; 0.3
UAACAGGGGGCCACAACAGAAGCGUUCACAUCGCAGCCCCUGUCAGAUUCUGGUGAAUCUGCGAAUUCUGCUGUAUAUCUC; 0.06
UAACAGGGGGCCACAGCAGCAGCGUUCACGUAGCAGCCCCUGUCAGAUUCUGGUGAAUCUGCGAAUUCUGCUGUAUAUCUC; 0.25
UAACGGGGGGCCACAGCAGAAGCGCUCACGUCGCAGCCCCUGUCAGAUUCUGGUGAAUCUGCGAAUUCUGCUGUAUAUCUC; 0.39
UAACAGGGGGCCACAGCAGAAGCGUUCACGUCGCAGCCCCUGUCAGAUCCUGGUGAAUCUGCGCAUUCUGCUGUAUAUCUC; 0.26
UAACAGGGGGCCACAGCAGAAGCGUUCACGUCACAGCCCCUGUCAGAUUCUGGUGAAUUUGCGAAUUCUGCUGUAUAUCUC; 0.24
UAACGGGGGGCCACAGCAGAAGCGUUCACGUCGCAGCCCCUGUCAGAUUCUGGUGAAUCUGCGAAUUCUGCGGUAUAUCUC; 0.79
UAACAGGGGGCCACAGCAGAAGCGUUCACGUCGGAGCCCCUGUCAGAUACUGGUGAAUCUGCGAAUUCUGCUGUAUAUCUC; 0.24
UAACAGGGGGCCACAGCAGAUGUGUUCACGUCGCAGCCCCUGUCAGAUUCUGGUGAAUCUGCGAAUUCUGCUGUAUAUCUC; 0.24
UAACAGGGGGCCACAGCAGAAGCGUUCACGUCGCAGCCCCUUUCAGAUUCUGGUGAAUCCGCGAAUUCUGCUGUAUAUCUC; 0.17
UAACAGGGGGCCGCAGCAGAAGCGUUCACGUCGCAGCCCCUGUCAGAUUCUGGUGAACCUGCGAAUUCUGCUGUAUAUCUC; 0.46
UAACAUGGGGCCACAGCAGAAGCGUUCACGUCGCAGCCCCUGUCAGAUUCUGGUGAAUCUGGGAAUUCUGCUGUAUAUCUC; 0.25
UAACAGGGGGCCACAGCAGAUGCGUUCACGUCGCAGCCCCUGUCAGAUUCUGGUGAAUCUGCUAAUUCUGCUGUAUAUCUC; 0.28
UGACAGGGGGCCACAGCAGAAGCGUUCACGUCGCAGCCCCUGUCAGAUUCUGGUGAAUCUGCGAAUUCUGCAGUAUAUCUC; 0.36
UAACAGGGGGCCACAGCAGAAGCGUUCACGUCGCAGCCCCUGUCAGAUUCUGGUGAAUCUGCGAAUCCUGCUGAAUAUCUC; 0.31
UUACAGGGGGCCACAGCAGAAGCGUUCACGUCGCAGCCCCUAUCAGAUUCUGGUGAAUCUGCGAAUUCUGCUGUAUAUCUC; 0.43
UAACAGGGGGCCACAGCUGAAGCGUUCACGUCGCGGCCCCUGUCAGAUUCUGGUGAAUCUGCGAAUUCUGCUGUAUAUCUC; 0.7
UAACAGGGGGCCUCAGCAGAAGCGUUCACGUCACAGCCCCUGUCAGAUUCUGGUGAAUCUGCGAAUUCUGCUGUAUAUCUC; 0.21
UAACAGGGGGCCACGGCAGAAGCGUUCACGUCGCAGCCCCUGUCAGAUUCUGGUGAAUCUGCGAAUUCUGCUGUAUAUCUU; 1.02
UAACAGGGGGCCACAGCAGAAGCAUUCACGUCGCAGCCCCUGUCAGAUUCUGGUGAAUCUGCGAAUUAUGCUGUAUAUCUC; 0.07
UAACAGGGGGCCACAGCAGAAGCGUUCACGUCGCAGCCCCUAUCAGAUUCUGGUGAAUCUGCGAAUUCUGCUGUAUAUCCC; 0.36
UAACAGGGGGCCACAGCAGGAGCGUUUACGUCGCAGCCCCUGUCAGAUUCUGGUGAAUCUGCGAAUUCUGCUGUAUAUCUC; 0.47
